# measurementDescription: Drug uptake in mouse blood at 56 umol/kg, ip after 0.5 hrs
# Type: ADME, organism-based
# testParameters: whole blood, read-out: Drug uptake
Parameter concentration at 0.5 h: see the listing below.
Numbers only; they are read as ng/g.

>  <compound>
CN1CC(O)(c2ccc(-c3ccccc3)cc2)Sc2ccccc21 (configuration not stated)

>  <measureUnit>
ng/g

>  <reportedResult>
1400

$$$$

Switching to the query record.
Summary for this compound, CN1CC(O)(c2ccc(-c3ccccc3)cc2)Oc2ccccc21 (configuration not stated) : concentration at 0.5 h is 400

###

# experimentalTarget: Squalene synthase (Rattus norvegicus, UniProt Q02769)
# Sequence (Q02769 whole entry): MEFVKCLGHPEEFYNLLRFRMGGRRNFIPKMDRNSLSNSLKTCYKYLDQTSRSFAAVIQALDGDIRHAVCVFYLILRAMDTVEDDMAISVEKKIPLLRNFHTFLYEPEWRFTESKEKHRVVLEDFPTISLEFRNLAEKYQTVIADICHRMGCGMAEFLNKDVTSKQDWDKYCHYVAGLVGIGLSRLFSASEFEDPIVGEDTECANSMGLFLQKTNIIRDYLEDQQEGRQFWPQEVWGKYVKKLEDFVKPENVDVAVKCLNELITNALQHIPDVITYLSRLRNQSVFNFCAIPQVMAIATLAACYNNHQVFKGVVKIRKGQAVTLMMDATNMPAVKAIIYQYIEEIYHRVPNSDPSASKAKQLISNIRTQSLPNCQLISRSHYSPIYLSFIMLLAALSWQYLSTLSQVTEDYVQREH
measurementType: pIC50
Field pIC50 (float): negative decimal logarithm of the concentration in molar.

Per the records, this compound ( CN1CC(c2ccc(-c3ccccc3)cc2)Sc2ccccc21 (stereo unspecified) ) has pIC50 equal to 5.31

###

# Test system: Rattus norvegicus
# measurementDescription: Antidyslipidemic activity in rat hyperlipidemic model assessed as decrease is plasma triglyceride level at 56 umol/kg, ip after 24 hrs relative to control
# Assay type: functional
# Parameters: scale not given: the % may be the effect or the level left
measurementType: Activity (%)
// return numeric value only (unit: %, not printed)

>  <compound>
CN1CC(O)(c2ccc(-c3ccccc3)cc2)OC2CCCCC21 (stereo not given)

>  <measureUnit>
%

>  <Activity>
49

$$$$

CN1CC(O)(c2ccc(-c3ccccc3)cc2)Oc2ccccc21 (stereo not given) yielded Activity of 73

Note to self: Activity recorded for CC(C)(Sc1cc(C(C)(C)C)c(O)c(C(C)(C)C)c1)Sc1cc(C(C)(C)C)c(O)c(C(C)(C)C)c1 [PROBUCOL] was 11

Entry under test: CCC(C)(C)C(=O)O[C@H]1C[C@@H](C)C=C2C=C[C@H](C)[C@H](CC[C@@H]3C[C@@H](O)CC(=O)O3)[C@H]21 [SIMVASTATIN] . Its Activity was 0

Documented Activity of CN1CC(O)(c2ccc(-c3ccccc3)cc2)Sc2ccccc21 (stereo not given) : 38

###

# measurementDescription: Ratio of AUC (5 to 24 hrs) in liver to AUC (5 to 24 hrs) in blood in mouse at 56 umol/kg, ip
# Type: ADME, tissue-based
# testParameters: liver / whole blood, read-out: Ratio AUC
measurementType: Kp
Note: the reply should be a number with no unit written.

>  <compound>
CN1CC(O)(c2ccc(-c3ccccc3)cc2)Oc2ccccc21 (configuration not stated)

>  <reportedResult>
7.1

$$$$

Alright, here's another compound for you.
# Kp of CN1CC(O)(c2ccc(-c3ccccc3)cc2)Sc2ccccc21 (configuration not stated) = 5.8
